molecular target: T1, Anti-CD28 Fab (SEQ ID NOs: 202, 203); assay: phage ELISA, Fab on plate, CD28 antigen as competitor
T1 construct: biotinylated and captured on neutravidin coated plates in the phage ELISA
T1 sequence (VH, as listed by the source, chain 1 of 2): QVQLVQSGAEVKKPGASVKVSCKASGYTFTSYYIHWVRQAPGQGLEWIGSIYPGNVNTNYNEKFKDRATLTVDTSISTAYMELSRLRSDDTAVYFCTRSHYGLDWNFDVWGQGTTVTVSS
T1 sequence (VL, as listed by the source, chain 2 of 2): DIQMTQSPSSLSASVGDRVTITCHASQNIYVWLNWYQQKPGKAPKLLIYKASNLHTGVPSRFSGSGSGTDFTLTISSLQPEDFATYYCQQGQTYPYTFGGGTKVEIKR
READOUT_LABEL: Anti-CD28 Fab signal in the presence of CD28
Answer using only a numeral; do not append any unit.

{"BINDER": "YCAGHLDIYLAKCL [Phage-701]", "VALUE_REPORTED": 0.07}

Exam item: Could you tell me which Anti-CD28 Fab signal in the presence of CD28 is on file for YCDGHLSIYMTKCL [Phage-638] ?
Marked response: 0.07

Exam item: Could you tell me which Anti-CD28 Fab signal in the presence of CD28 is on file for YCDGHSPEYMQKCL [Phage-617] ?
Marked response: 0.53

Exam item: Could you tell me which Anti-CD28 Fab signal in the presence of CD28 is on file for YCEGHLWEYMKKCL [Phage-748] ?
Marked response: 0.07

Exam item: Could you tell me which Anti-CD28 Fab signal in the presence of CD28 is on file for YCDGHTPEYMWKCL [Phage-604] ?
Marked response: 0.06

Exam item: Could you tell me which Anti-CD28 Fab signal in the presence of CD28 is on file for YCDGHSPAFIQKCL [Phage-606] ?
Marked response: 0.08

Exam item: Could you tell me which Anti-CD28 Fab signal in the presence of CD28 is on file for YCAGHMPIYMTKCL [Phage-667] ?
Marked response: 0.08

Exam item: Could you tell me which Anti-CD28 Fab signal in the presence of CD28 is on file for YCEGHSQLYMAKCL [Phage-630] ?
Marked response: 0.07

Taken from patent US20260274955A1.
